system: CSNK2A2; conditions: concentration: 1 μM, replicates: in singlicate; n = 1;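 note: KINOMEscan kinase panel screen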
Property name: %Inh (%)
// return numeric value only (unit: %, not printed)

Just so you know, measured %Inh for Cn1ccc2ncnc(Oc3ccc(NC(=O)Nc4cccnc4)c(Cl)c3)c21 came out at 19

Just so you know, measured %Inh for Cl.O=S(=O)(c1cccc(F)c1)c1ccc(Nc2ncnc3cc(Br)sc23)cc1Cl [GSK306886] came out at 37

Just so you know, measured %Inh for CN1c2ccc(-c3ccc(C(=O)NCCO)cc3)cc2-c2[nH]ncc2S1(=O)=O came out at 47

Just so you know, measured %Inh for CCCc1ccc(S(=O)(=O)NC2CCN(c3ccnc(Nc4ccc(OC)cc4)n3)C2)cc1 (centres unmarked) [GSK1379737] came out at 0

Just so you know, measured %Inh for CS(=O)(=O)CCNCc1ccc(-c2ccc3ncnc(Nc4ccc(OCc5ccccc5)c(Cl)c4)c3c2)o1.Cl [GW574783] came out at 5

Just so you know, measured %Inh for Fc1ccc(Nc2nccc(-c3c(-c4ccc(Cl)cc4)nn4ncccc34)n2)cc1F [GW829058] came out at 24

Just so you know, measured %Inh for O=C(c1ccc(-c2cc(-c3c[nH]nc3-c3ccccn3)ccn2)cc1)N1CCCC1 [GW792479] came out at 0

Just so you know, measured %Inh for COc1cc2c(Nc3cccc(NC(=O)c4ccccc4)c3)ncnc2cc1OCCCN1CCOCC1 [GSK223810] came out at 22
